Tested on: K4 kissing-loop RNA reporter;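 note: bound reporter read as fluorescence of individual clusters on recovered sequencing chips by microscopy, with normalized cluster intensities fitted with a binding model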
protocol.details: apparent KD of K4 kissing-loop reporter; higher = weaker reporter binding
applied.conditions: Eterna round: R107; input ligand: tryptophan 2.4 mM
readout: apparent KD of K4 kissing-loop reporter (nM)
Answers are plain numbers, in nM.

UGGCCUUAAAUUCUAGGAUUAGCGACGUACAAGGAUAUUCGUCAUCGAAGAAGGUGUAGCUAGGAGAGUGAUGUUUUCCAUCGCC [theeternabot_sameState_KL_FMN_A_15]    504

# batch: return apparent KD of K4 kissing-loop reporter for each of the 2 sequences below
1. UGCACGGGCUCGGCCGCCACUCCCGCGGGUCGGAAGGUCCGCUACUGAGUGAUGUUCGGUUGGAGGAGGACCGGGAGCCCGUGCA [#2 Exclusion - Tryptophan B Attempt #26 (HarryS)]
2. AGACUUCACCGAAGGAGCGACGUAGCCUAGUGAUGUUAGGCACGAGAGAAAUCUCGUGUACGUCAGGUAGGUCGCGGUGAAGUCA [Omei KL Arginine B SS C v5]

[out]
88.5
1040

---

Would you kindly list apparent KD of MS2 coat protein for each of these sequences?
Test system: MS2 coat protein
protocol.details: apparent KD of MS2 coat protein; designed switch direction (-1 OFF switch, 1 ON switch): -1; higher = weaker reporter binding
applied.conditions: Eterna round: R95; input ligand: none
Give bare numbers, in nM.

GCCGAUUAAGUGAGGAUAUACCUAUGGAAACAUAGGUAGAAGGCACAUGAGGAUCACCCAUGUUCCUAUACGGC [Fiskers BMX 4 - 5] (puzzle: Brourd's mod of Exclusion 4)    11
CUGGGCCGAGGAUAUAUUAUGUGAAACAUGAGGAUCACCCAUGUAAUAUGAUGGAUGUAAAUAGAAGGCGGUCUAG [Mat - Exclusion 5 - JL mod - D27] (puzzle: Exclusion 5)    21.3
UCAUACGGUGAGGAUAUCUCCGCUAAAGUGUGUAGAGAAGGCGCUACAUGAGGAUCACCCAUGUUUAUGGGCAG [Ex-6 Malc#12] (puzzle: Exclusion 6)    443
AAUACCCGAGGAUAUCUAAUUCGGCACAUGAGGAUCACCCAUGUGAUCUGACCUAGCCGAGGAGAAGGCGGGUCAG [Errizabe] (puzzle: Exclusion 5)    12.1
UGGGUUCUCCAUGGAAGUAACAUGAGGAUCACCCAUGUAGGGCAAGUUUUUUGCUCGUCAUAGGCCGUGGGUUUGGA [JR_SV3TOV1_Sub019] (puzzle: Sensor v3, turn-off variant 1)    305
AGUUGGCGAGGAUAUACAUGAGGAUCACCCAUGUGAGAGAAAAAAGUGAGGAAGAAAAGUAGAAGGCGCUGACC [salish99_ex3_r3_041] (puzzle: Exclusion 3)    81.8

Take each entry in turn and give its apparent KD of MS2 coat protein.
1. UGAGGACAUGAGGAUCACCCAUGUAAGGAUAUGCGGAGAGCUUGGAGAGGUUGAGGAGGCAGAAGGUACAGGAC [JR_Exclu1_Sub048] (puzzle: Exclusion 1)
2. UAUAAGGUAGGAUAUACGAAUAAAUAGGGUAGAAUAAUAACACAUGAGGAUCACCCAUGUAGAAGGACCAAGAU [Mat - Exclusion 2 - Mod of my Tesla design - D29] (puzzle: Exclusion 2)
3. AAGUACCGUCACGAUAGUGAUGGUACAACAAGCAGUGAAACAUGAGGAUCACCCAUGUCCUCGAUUGCUCGUCUUAU [Sensor 3 - 80] (puzzle: Sensor v3, turn-off variant 2)

[out]
1: 57; 2: 24.8; 3: 66.3

Please state, for each entry, its recorded apparent KD of MS2 coat protein.
1. CGGAGCGUAGGUAGGUUCAACAUGAGGAUCACCCAUGUCUCACAAGCUUUUUGCUCAUCUUAUUGUACCUUGGUGCU [Sensor v3, turn-off variant 1 (MOD of JL )] (puzzle: Sensor v3, turn-off variant 1)
2. AGUACUAACACGAAAGUGUUAGUACAAUAAGCUUGUGAAACAUGAGGAUCACCCAUGUCCUCAUAAGCUCGUCUUAA [salish99_TOv2_r3_002] (puzzle: Sensor v3, turn-off variant 2)
3. AGAUGGCGAGGAUAUACAUGAGGAUCACCCAUGUGAGAAGAAGAAGUGAGGAAGAAAAGUAGAAGGCGCUGUCA [Mat - Exclusion 3 - Mod of Salish D20] (puzzle: Exclusion 3)

[out]
1. 144
2. 10.8
3. 44.9

Quick request: apparent KD of MS2 coat protein for each listed item, please.
1. CGGUGCUGAGGAUAUACAUGAGGAUCACCCAUGUGUUCUUGCUAGCGUACUGGCAGAUGUAGAAGGCGGUACUG [JL-ex3-3.45 Brourd mod] (puzzle: Exclusion 3)
2. GCAUUGAGUGUGAGGAUAUGCUGGUCGUAAGAUCAGCAGAAGGCACAUGAGGAUCACCCAUGUGAAAACAAUGC [Mat - Exclusion 4 - JL Mod - D67] (puzzle: Brourd's mod of Exclusion 4)
3. AAGGAGUUAGGAUAUCGAAGAAGAAGAAGAAGAAGAAGAAGCGAGAAGGAACAUGAGGAUCACCCAUGUAAGAA [JR_Exclu4_Sub028] (puzzle: Exclusion 4)
4. AGAUGUAGAUACCGAUCCUACAUGAGGAUCACCCAUGUAGCUAGACGUGCACGCGUAGCUCGUCAGACUACCAGUAG [salish99_TOv1_r3_086] (puzzle: Sensor v3, turn-off variant 1)
5. UUUAUAAUUUCAAUCUUCGCCAACAAACUUACGCUGGCCACAUGAGGAUCACCCAUGUUUUUUGUUCGUUUUAUUCU [Veorenxere] (puzzle: Sensor v3, turn-off variant 2)
6. UAAAACUGAGGAUAUACAUGAGGAUCACCCAUGUCAAUUGACAGCGGCGUGGCAAAAGGUAGAAGGCAGGCGGU [Lerete] (puzzle: Exclusion 3)
7. UUUAAUUUUUUUUUUUUACAAGCUUUUUGCUCGUCUUAUACAUGAGGAUCACCCAUGUAAAUGGAAGAUAAAUUAUC [JMF 7] (puzzle: Sensor v3, turn-off variant 2)

[out]
22.7
23.4
41.5
363
21.9
161
17.3

Recorded apparent KD of MS2 coat protein for AGUACUAUCACGAAAGUGAUAGUACAAAAUAGCAAGUGAACAUGAGGAUCACCCAUGUCCUCAUUUGCUCGUCUUAU [Sensor 3 - 19] (puzzle: Sensor v3, turn-off variant 2) on MS2 coat protein was 14.2

Recorded values, source the supplement of paper PMC9170038.
